- System: rodent lifetime carcinogenesis bioassay, tumor incidence TD50
- PROTOCOL_NOTES: carcinogenic potency in animals, long-term in vivo studies, CPDB compilation (AID 1745844)
- CONDITIONS_USED: rat; strain Fischer 344; males; by gavage; site: preputial gland; lesion: carcinoma, NOS; dosed 103 weeks; study length 104 weeks
METRIC_NAME: TD50
Please don't drop the unit; write it after the number.

CC(O)c1ccccc1 (configuration not stated)	1270 mg/kg/day

Briefly, TD50 measured for `Nc1ccc([N+](=O)[O-])cc1O` : 562 mg/kg/day

---

- Tested on: rodent lifetime carcinogenesis bioassay, tumor incidence TD50
- PROTOCOL_NOTES: carcinogenic potency in animals, long-term in vivo studies, CPDB compilation (AID 1745844)
- CONDITIONS_USED: mouse; strain B6C3F1; females; in feed; site: all sites; lesion: systemic and localized lymphoma; dosed 94 weeks; study length 94 weeks
METRIC_NAME: TD50
Please don't drop the unit; write it after the number.

Briefly, TD50 measured for `Cn1cnc([N+](=O)[O-])c1Sc1ncnc2nc[nH]c12` : 7.59 mg/kg/day

---

- System: rodent lifetime carcinogenesis bioassay, tumor incidence TD50
- PROTOCOL_NOTES: carcinogenic potency in animals, long-term in vivo studies, CPDB compilation (AID 1745844)
- CONDITIONS_USED: rat; strain Charles River CD (Sprague-Dawley); females; inhaled; site: liver; lesion: hepatocellular carcinoma; dosed 78 weeks; study length 78 weeks
METRIC_NAME: TD50 (mg/kg/day)
Answer in mg/kg/day, number only, no unit symbol.

Briefly, TD50 measured for `C=CF` : 1440

---

- System: rodent lifetime carcinogenesis bioassay, tumor incidence TD50
- PROTOCOL_NOTES: carcinogenic potency in animals, long-term in vivo studies, CPDB compilation (AID 1745844)
- CONDITIONS_USED: mouse; strain B6C3F1; males; i.p.; site: liver; lesion: hepatocellular adenoma + hepatocellular carcinoma + neoplastic nodule; dosed 44 weeks; study length 78 weeks
METRIC_NAME: TD50 (mg/kg/day)
Answer in mg/kg/day, number only, no unit symbol.

Briefly, TD50 measured for `CC[C@H]1CN2CCc3cc(OC)c(OC)cc3[C@@H]2C[C@@H]1C[C@H]1NCCc2cc(OC)c(OC)cc21` : 1.3

---

- Test system: rodent lifetime carcinogenesis bioassay, tumor incidence TD50
- PROTOCOL_NOTES: carcinogenic potency in animals, long-term in vivo studies, CPDB compilation (AID 1745844)
- CONDITIONS_USED: mouse; strain B6C3F1; males; in feed; site: all sites + liver; lesion: hemangiosarcoma + hepatocellular adenoma + hepatocellular carcinoma; dosed 78 weeks; study length 91 weeks
METRIC_NAME: TD50
Please don't drop the unit; write it after the number.

Briefly, TD50 measured for `Cc1ccc(Cl)cc1N` : 134 mg/kg/day

---

- Test system: rodent lifetime carcinogenesis bioassay, tumor incidence TD50
- PROTOCOL_NOTES: carcinogenic potency in animals, long-term in vivo studies, CPDB compilation (AID 1745844)
- CONDITIONS_USED: mouse; strain CDF1; females; in feed; site: forestomach; lesion: squamous-cell carcinoma; dosed 78 weeks; study length 104 weeks
METRIC_NAME: TD50

Briefly, TD50 measured for `NC(=O)C(=Cc1ccc([N+](=O)[O-])o1)c1ccco1` : 2540 mg/kg/day

---

- Test system: rodent lifetime carcinogenesis bioassay, tumor incidence TD50
- PROTOCOL_NOTES: carcinogenic potency in animals, long-term in vivo studies, CPDB compilation (AID 1745844)
- CONDITIONS_USED: mouse; strain B6C3F1; males; in feed; site: thyroid gland; lesion: follicular-cell adenoma; dosed 52 weeks; study length 52 weeks
METRIC_NAME: TD50

Briefly, TD50 measured for `O=c1cc(CO)occ1O` : 323 mg/kg/day

---

- Tested on: rodent lifetime carcinogenesis bioassay, tumor incidence TD50
- PROTOCOL_NOTES: carcinogenic potency in animals, long-term in vivo studies, CPDB compilation (AID 1745844)
- CONDITIONS_USED: rat; strain Wistar; females; in feed; site: liver; lesion: hepatocellular adenoma; dosed 52 weeks; study length 52 weeks
METRIC_NAME: TD50 (mg/kg/day)
Answer in mg/kg/day, number only, no unit symbol.

Briefly, TD50 measured for O=P(O)(OCC(Br)CBr)OCC(Br)CBr (stereo unspecified) : 33.2

---

- Test system: rodent lifetime carcinogenesis bioassay, tumor incidence TD50
- PROTOCOL_NOTES: carcinogenic potency in animals, long-term in vivo studies, CPDB compilation (AID 1745844)
- CONDITIONS_USED: rat; strain F344/DuCrj; males; in drinking water; site: nasal cavity; lesion: malignant tumor; dosed 104 weeks; study length 105 weeks
METRIC_NAME: TD50

Entry `C1COCCO1` , rodent lifetime carcinogenesis bioassay, tumor incidence TD50 data, TD50 value: 1440 mg/kg/day

---

- Test system: rodent lifetime carcinogenesis bioassay, tumor incidence TD50
- PROTOCOL_NOTES: carcinogenic potency in animals, long-term in vivo studies, CPDB compilation (AID 1745844)
- CONDITIONS_USED: mouse; strain B6C3F1; males; inhaled; site: all sites; lesion: histiocytic sarcoma + malignant lymphoma, histiocytic type + malignant lymphoma, mixed type + malignant lymphoma, lymphocytic; dosed 82 weeks; study length 104 weeks
METRIC_NAME: TD50 (mg/kg/day)
Answer in mg/kg/day, number only, no unit symbol.

Briefly, TD50 measured for `C=CC=C` : 63.5

---

- System: rodent lifetime carcinogenesis bioassay, tumor incidence TD50
- PROTOCOL_NOTES: carcinogenic potency in animals, long-term in vivo studies, CPDB compilation (AID 1745844)
- CONDITIONS_USED: mouse; strain B6C3F1; females; oral dosing; site: lung; lesion: adenoma; dosed 78 weeks; study length 78 weeks
METRIC_NAME: TD50

Briefly, TD50 measured for `NNCCO` : 4.77 mg/kg/day

---

- Test system: rodent lifetime carcinogenesis bioassay, tumor incidence TD50
- PROTOCOL_NOTES: carcinogenic potency in animals, long-term in vivo studies, CPDB compilation (AID 1745844)
- CONDITIONS_USED: rat; strain Charles River CD (Sprague-Dawley); females; inhaled; site: liver; lesion: hepatocellular adenoma; dosed 105 weeks; study length 105 weeks
METRIC_NAME: TD50

Briefly, TD50 measured for `FC(F)(F)C(Cl)Cl` : 20300 mg/kg/day

---

- System: rodent lifetime carcinogenesis bioassay, tumor incidence TD50
- PROTOCOL_NOTES: carcinogenic potency in animals, long-term in vivo studies, CPDB compilation (AID 1745844)
- CONDITIONS_USED: mouse; strain Charles River CD1; males; inhaled; site: lung; lesion: alveolar/bronchiolar adenoma; dosed 104 weeks; study length 105 weeks
METRIC_NAME: TD50

Entry `C=Cc1ccccc1` , rodent lifetime carcinogenesis bioassay, tumor incidence TD50 data, TD50 value: 154 mg/kg/day

---

- Tested on: rodent lifetime carcinogenesis bioassay, tumor incidence TD50
- PROTOCOL_NOTES: carcinogenic potency in animals, long-term in vivo studies, CPDB compilation (AID 1745844)
- CONDITIONS_USED: rat; strain Fischer 344; males; in drinking water; site: liver; lesion: several types; types named in the paper; dosed 118 weeks; study length 128 weeks
METRIC_NAME: TD50

Briefly, TD50 measured for `CN(CCCC(=O)c1cccnc1)N=O` : 0.651 mg/kg/day

---

- Tested on: rodent lifetime carcinogenesis bioassay, tumor incidence TD50
- PROTOCOL_NOTES: carcinogenic potency in animals, long-term in vivo studies, CPDB compilation (AID 1745844)
- CONDITIONS_USED: rat; strain Sprague-Dawley; males; inhaled; site: Zymbal's gland; lesion: carcinoma; dosed 52 weeks; study length 139 weeks
METRIC_NAME: TD50 (mg/kg/day)
Answer in mg/kg/day, number only, no unit symbol.

Briefly, TD50 measured for `C=CCl` : 50.4

---

- Test system: rodent lifetime carcinogenesis bioassay, tumor incidence TD50
- PROTOCOL_NOTES: carcinogenic potency in animals, long-term in vivo studies, CPDB compilation (AID 1745844)
- CONDITIONS_USED: rat; strain Sprague-Dawley; males; inhaled; site: mammary gland; lesion: one or several types; types not named; dosed 104 weeks; study length 159 weeks
METRIC_NAME: TD50 (mg/kg/day)
Answer in mg/kg/day, number only, no unit symbol.

Briefly, TD50 measured for `ClC=C(Cl)Cl` : 120

---

- Tested on: rodent lifetime carcinogenesis bioassay, tumor incidence TD50
- PROTOCOL_NOTES: carcinogenic potency in animals, long-term in vivo studies, CPDB compilation (AID 1745844)
- CONDITIONS_USED: rat; strain Fischer 344; males; by gavage; site: kidney; lesion: tubule carcinoma; dosed 103 weeks; study length 105 weeks
METRIC_NAME: TD50 (mg/kg/day)
Answer in mg/kg/day, number only, no unit symbol.

Briefly, TD50 measured for `ClC(Cl)(Cl)C(Cl)(Cl)Cl` : 159
